Could you please report measured MTD for the items listed next?
System: Mus musculus
Assay: Maximally tolerated dose was measured after ip administration of compound, 24 hr after tumor implantation.
Assay type: functional
One number for each entry, in µM/kg.

Please review the entries below; each comes with its answer.
INSERT INTO results (item_smiles, readout_number) VALUES
  ('CCP(CC)CCP(CC)CC', 310),
  ('c1ccc(P(CCCCCP(c2ccccc2)c2ccccc2)c2ccccc2)cc1', 18),
  ('FC(F)(F)c1ccc(P(CCP(c2ccc(C(F)(F)F)cc2)c2ccc(C(F)(F)F)cc2)c2ccc(C(F)(F)F)cc2)cc1', 48),
  ('Fc1ccccc1P(CCP(c1ccccc1F)c1ccccc1F)c1ccccc1F', 68),
  ('c1ccc(P(CCCCP(c2ccccc2)c2ccccc2)c2ccccc2)cc1', 66),
  ('c1ccc(P(CCCCCCP(c2ccccc2)c2ccccc2)c2ccccc2)cc1', 280),
  ('c1ccc(P(CCP(CCP(c2ccccc2)c2ccccc2)CCP(c2ccccc2)c2ccccc2)c2ccccc2)cc1', 95),
  ('CSc1ccc(P(CCP(c2ccc(SC)cc2)c2ccc(SC)cc2)c2ccc(SC)cc2)cc1', 55);

List the reported MTD of each compound below.
1. COc1ccccc1P(CCP(c1ccccc1OC)c1ccccc1OC)c1ccccc1OC
2. Cc1cccc(P(CCP(c2cccc(C)c2)c2cccc(C)c2)c2cccc(C)c2)c1
3. COc1ccc(P(CCP(c2ccc(OC)cc2)c2ccc(OC)cc2)c2ccc(OC)cc2)cc1
4. c1ccc(P(CCP(c2ccccn2)c2ccccn2)c2ccccn2)nc1
5. c1ccc(P(CC[As](c2ccccc2)c2ccccc2)c2ccccc2)cc1
6. C1CCC(P(CCP(C2CCCCC2)C2CCCCC2)C2CCCCC2)CC1

Ans:
1: 120; 2: 70; 3: 62; 4: 60; 5: 89; 6: 76

List the reported MTD of each compound below.
1. c1ccc([As](CC[As](c2ccccc2)c2ccccc2)c2ccccc2)cc1
2. Fc1ccc(P(CCP(c2ccc(F)cc2)c2ccc(F)cc2)c2ccc(F)cc2)cc1

Ans:
[82, 17]

---

Test system: Mus musculus
Assay: Maximally tolerated dose was measured after ip administration of compound, 24 hr after tumor implantation.
Format: functional
measured.quantity: MTD

Please review the entries below; each comes with its answer.
INSERT INTO measurements (compound, result) VALUES
  ('C(#CP(c1ccccc1)c1ccccc1)P(c1ccccc1)c1ccccc1', '>300 µM/kg'),
  ('CCP(CCP(CC)c1ccccc1)c1ccccc1 (stereo not drawn)', '>300 µM/kg');

Could you now look at the following compound, please?
Q: Quick one: MTD for "c1ccc(P(c2ccccc2)c2ccc(P(c3ccccc3)c3ccccc3)cc2)cc1" ?
Ans: >600 µM/kg
